# Target or system: Human Fc (human)
# Experiment summary: ELISA, negative control
Measured optical density of individual entries
Numbers only here, please. The scale is OD.

Below: 4 binders and their reported optical density.
INSERT INTO measurements (binder, measured_number) VALUES
  ('374_C06 (antibody, V domains shown) VH: EVQLLESGGGLVQPGGSLRLSCAASGFTFDDYSMNWVRQAPGKGLEWVSSINYNSGYKGYADSVKGRFTISRDNSKNTLYLQMNSLRAEDTAVYYCARSANWHDTALDYWGQGTLVTVSS VL: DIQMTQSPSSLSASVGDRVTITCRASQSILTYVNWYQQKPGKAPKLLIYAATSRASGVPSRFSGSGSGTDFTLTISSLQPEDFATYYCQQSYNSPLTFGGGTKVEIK', 0.18),
  ('369_F11 (antibody, V domains shown) VH: EVQLLESGGGLVQPGGSLRLSCAASGFTFDSYGMNWVRQAPGKGLEWVSNINYNSGYKSYADSVKGRFTISRDNSKNTLYLQMNSLRAEDTAVYYCARSANWHDTALDYWGQGTLVTVSS VL: DIQMTQSPSSLSASVGDRVTITCRASQSIISYLNWYQQKPGKAPKLLIYAATSRASGVPSRFSGSGSGTDFTLTISSLQPEDFATYYCQQSYDLPLTFGGGTKVEIK', 0.37),
  ('373_D01 (antibody, V domains shown) VH: EVQLLESGGGLVQPGGSLRLSCAASGFTFDSYSMNWVRQAPGKGLEWVSGINYNSGYKSYADSVKGRFTISRDNSKNTLYLQMNSLRAEDTAVYYCARSANWHDTHLDYWGQGTLVTVSS VL: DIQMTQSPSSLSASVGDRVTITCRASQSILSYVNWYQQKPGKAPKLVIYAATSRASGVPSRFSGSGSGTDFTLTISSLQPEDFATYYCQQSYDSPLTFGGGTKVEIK', 0.174),
  ('374_B06 (antibody, V domains shown) VH: EVQLLESGGGLVQPGGSLRLSCAASGFTFDSYSMNWVRQAPGKGLEWVAGINYNSGYKGYADSVKGRFTISRDNSKNTLYLQMNSLRAEDTAVYYCARSANWHDTHLDYWGQGTLVTVSS VL: DIQMTQSPSSLSASVGDRVTITCRASQSILTYVNWYQQKPGKAPKLLIYAATSRASGVPSRFSGSGSGTDFTLTISSLQPEDFATYYCQQSYDTPLTFGGGTKVEIK', 0.157);

Now consider a different binder.
Give its optical density value. Item: 374_A07 (antibody, V domains shown) VH: EVQLLESGGGLVQPGGSLRLSCAASGFTFSSYSMNWVRQAPGKGLEWVSGINYNSGYKGYADSVKGRFTISRDNSKNTLYLQMNSLRAEDTAVYYCARSANWHDTALDYWGQGTLVTVSS VL: DIQMTQSPSSLSASVGDRVTITCRASQSILSYVNWYQQKPGKAPKLLIYAVTSRASGVPSRFSGSGSGTDFTLTISSLQPEDFATYYCQQSYDLPLTFGGGTKVEIK
0.206

Entry source: patent US20210380703A1
